test system: HeLa; experiment: Cytotoxicity against human HeLa cells after 48 hrs by MTS assay; format: functional, cell-based
Experimental Endpoint: pIC50
A value of pIC50 is the negative decimal logarithm of a concentration given in moles per litre.

Input: Which measured pIC50 value corresponds to C[C@@H](O)[C@@H](O)[C@]12C(=O)O[C@H](C=C[C@@H]1C)[C@H]2O ?
Output: 4.35

----------
tested on: SW480; assay: Cytotoxicity against human SW480 cells after 48 hrs by MTS assay; type: functional, cell-based; settings: SW480, 48 h
# reported pIC50; entries follow
A value of pIC50 is the negative decimal logarithm of a concentration given in moles per litre.

These solved cases illustrate the format of a correct answer.
>  <Compound Structure>
C[C@@H](O)[C@@H](O)[C@]12C(=O)O[C@H](C=C[C@@H]1C)[C@H]2O

>  <System Under Test>
SW480

>  <Readout Value>
4.36

$$$$
>  <Compound Structure>
C[C@@H]1CC[C@H](O)[C@H]2O[C@@]3(C)OC(=O)[C@@]12[C@H]3O

>  <System Under Test>
SW480

>  <Readout Value>
4.28

$$$$

We next turn to a different molecule, shown below.
Input: Which measured pIC50 value corresponds to C[C@@H]1C=C[C@H](O)[C@H]2O[C@@]3(C)OC(=O)[C@@]12[C@@H]3O ?
Output: 4.26

----------
system: HCT-116; assay: Cytotoxicity against human HCT116 cells after 48 hrs by MTS assay; format: functional, cell-based; conditions: HCT-116, 48 h
Experimental Endpoint: IC50

>  <Compound Structure>
C[C@@H](O)[C@@H](O)[C@]12C(=O)O[C@H](C=C[C@@H]1C)[C@H]2O

>  <IC50>
41.7 µM

$$$$

Input: Which measured IC50 value corresponds to C[C@@H]1CC[C@H](O)[C@H]2O[C@@]3(C)OC(=O)[C@@]12[C@H]3O ?
Output: 56.6 µM

Input: What do you have for C[C@@H]1C=C[C@H](O)[C@H]2O[C@@]3(C)OC(=O)[C@@]12[C@@H]3O ?
Output: 48.8 µM
